# Tested on: A549 NSCLC
# Experiment Description: NCI tumour cell line growth inhibition, 48 h; in the data active = GI50 below about 0.43 µM; inactive = the rest
Reply using exactly one outcome from 1 (yes) for active, 0 (no) for inactive

Q) Recorded test outcome, item CCOC(=O)c1sc(Nc2ccc(Cl)cc2)nc1C
A) 0 (no)

Q) Recorded test outcome, item CCC(=C/[C@H](C)C/C=C/C(C)=C/[C@@H](C)C(=O)[C@@H](C)[C@H](O)[C@@H](C)CC)/C=C/[C@H]1OC(=O)C=C[C@H]1C
A) 1 (yes)

Q) Recorded test outcome, item COc1ccc(NC(=O)c2sc3nc(C)c(C(O)c4ccccc4)cc3c2N)cc1 (stereo not given)
A) 0 (no)

Q) Recorded test outcome, item C=C1C(=O)O[C@H]2[C@H]1CC/C(COC(=O)NCc1c[nH]c3ccc(Cl)cc13)=C\CC[C@@]1(C)O[C@@H]21
A) 0 (no)

Q) Recorded test outcome, item CCOC(=O)c1sc(=S)c2c(C(=O)OCC)c(C(=O)OCC)sc2c1C(=O)OCC
A) 0 (no)

---

# Test system: HOP-92 NSCLC
# Experiment Description: NCI tumour cell line growth inhibition, 48 h
Readout Kind: TGI (µM)
Write the number in µM without appending the unit.

# compound CC(C)(C)C(=O)C1CC(=O)c2ccccc2C1=O (configuration not stated) ; its TGI = 66.5

# compound CC(C)NCC(O)c1ccc(OCc2ccccc2)c(OCc2ccccc2)c1-c1ccccc1 (configuration not stated) ; its TGI = 6.94

# compound Cc1cc(O)cc2c1O[C@@]1(C)CCC3[C@@]4(C)CC[C@H](O)C(C)(C)C4CC[C@@]3(C)[C@H]1C2 (some centres not stated) ; its TGI = 9.78

---

Give TGI for every item shown.
# Test system: SK-OV-3 ovarian
# Experiment Description: NCI tumour cell line growth inhibition, 48 h

# compound COc1ccc(C(c2c(O)c3ccccc3n(C)c2=O)c2c(O)c3ccccc3n(C)c2=O)cc1 ; its TGI = > 100 µM

# compound Nc1ncnc2c1ncn2C1OC(CO)=CC1O (stereo not given) ; its TGI = > 37.5 µM

# compound Cc1[nH]c(=O)[nH]c(=O)c1CO ; its TGI = > 100 µM

# compound COC(=O)C1(Cc2ccccc2)Cc2ccc3c(c2C1=O)CCC3 (stereo not given) ; its TGI = > 100 µM

# compound Cc1[nH]c(=O)nc(NCCNCCO)c1C(=O)Nc1c2ccccc2nc2ccccc12 ; its TGI = > 100 µM

# compound c1ccc(/N=N/Nc2ccc(-c3nc4ccccc4[nH]3)cc2)nc1 ; its TGI = 27.9 µM

# compound COc1cc2c(c3c1c(=O)c1ccccc1n3C)C=CC1(CCCCC1)O2 ; its TGI = > 10 µM

# compound COC(=O)CCn1cnc2c(SC)ncnc21 ; its TGI = > 100 µM

# compound O=[N+]([O-])O.[Ga] ; its TGI = 390 µM

# compound COc1ccc2c(c1)OC[C@@H]1c3cc4c(cc3O[C@H]21)OCO4 ; its TGI = > 100 µM

# compound COc1cc([C@@H]2c3[nH]c4ccccc4c3C(Nc3ccc([N+](=O)[O-])cc3)[C@H]3COC(=O)N23)cc(OC)c1O (stereo not given in full) ; its TGI = 2.31 µM

# compound COc1ccccc1CNCCCN1C(=O)c2ccc3c4c(ccc(c24)C1=O)C(=O)N(CCCNCCCN)C3=O ; its TGI = 4.66 µM

# compound CC(NC(=O)OC(C)(C)C)C(=O)C(N)=O (stereo not given) ; its TGI = > 100 µM

# compound COc1cc(C(=O)c2cc3c(cc2C)OCO3)cc(OC)c1OC ; its TGI = > 100 µM

# compound CC(=O)Oc1ccccc1C(=O)O ; its TGI = > 100 µM

# compound N#CC1=C(N)OC(c2ccc([N+](=O)[O-])cc2)C1(C#N)C#N (stereo not given) ; its TGI = > 100 µM

# compound c1ccc(CN(Cn2cccn2)Cn2cccn2)nc1 ; its TGI = > 100 µM

# compound N.N.NCCCCN.O=C([O-])C1(C(=O)[O-])CCC1.O=C([O-])C1(C(=O)[O-])CCC1.[Pt+4].[Pt+4] ; its TGI = > 100 µM

# compound COc1ccc(-c2nc(-c3nc4ccc(OC)cc4[nH]3)cc3c2[nH]c2ccccc23)cc1 ; its TGI = > 100 µM

# compound CCCCCCCC[N+](C)(CCCCCCCC)CCCCCCCC ; its TGI = 1.71 µM

# compound CCOC(=O)c1c(-c2ccc(OC)cc2)c(C#N)c(=S)n(C2OC(CO)C(O)C(O)C2O)c1-c1ccccc1 (stereo not given) ; its TGI = > 100 µM

# compound CC(C)NC(=O)OCc1c(COC(=O)NC(C)C)n(C)c2c1ccc1ccccc12 ; its TGI = 22.2 µM

# compound O=C(O)CC/C(=N\Nc1nsc2ccccc12)c1ccc(Cl)cc1 ; its TGI = 89.6 µM

# compound COc1nc2sc3c(c2c(=O)n1CCCSSCCCn1c(OC)nc2sc4c(c2c1=O)CCCC4)CCCC3 ; its TGI = > 100 µM

# compound NCCC(O)(P(=O)(O)O)P(=O)(O)O ; its TGI = > 100 µM

# compound COC(=O)[C@]1(C)CCC[C@@]2(C)C1CCC1=CC3(C(C)C)CCC12OO3 (stereo not given in full) ; its TGI = > 100 µM

# compound CN(C)c1nc(-c2ccccc2)c(C(=O)c2c[nH]c3ccccc23)s1 ; its TGI = > 100 µM

# compound COc1ccc(N2C(=O)C3c4[nH]c5cccc(C)c5c4C4CCC(C(C)(C)C)CC4C3C2=O)cc1 (stereo not given) ; its TGI = > 10 µM

# compound O=C1CC2(CCNCC2)C(=O)N1N1CCCC1 ; its TGI = > 100 µM

# compound COC1=CC(c2ccc[nH]2)=N/C1=C\c1ccc[nH]1 ; its TGI = 18.6 µM
